# reported Reduction factor; entries follow
- Tested on: Aspergillus niger ATCC 16404 spores
- Run description: Sporicidal effect of test compounds and preservatives in a cosmetic cream
- Format: cell-based
- Stated conditions: test compound alone (0.1% where given), no preservative, 7 d (Table 3)
Write the value as a bare number.

# Compound, Reduction factor
data = [
    ("COc1cc(O)ccc1C=O [4-hydroxy-2-methoxy-benzaldehyde]", 5),
    ("O=Cc1cc(O)cc(O)c1 [3,5-dihydroxybenzaldehyde]", 10),
    ("COc1cc(C=O)ccc1O [Vanilline]", 10.4),
    ("O=Cc1ccc(O)cc1 [4-hydroxybenzaldehyde]", 1.04),
]

Problem: Recall the reported Reduction factor of COc1ccc(C=O)cc1 [4-methoxybenzaldehyde] on Aspergillus niger ATCC 16404 spores and write it down.
Solution: 37.1

* * *

- Tested on: Aspergillus niger ATCC 16404 spores
- Run description: Sporicidal effect of test compounds in water
- Type: cell-based
- Stated conditions: 0.1% test compound in water, spore count after 7 days
Measured parameter: Spores/ml

These recorded examples may help you get a feel for the data.
# Compound, Value measured
records = [
    ("CC(CC=O)CCc1ccccc1 (centres unmarked) [Mefranal, 3-methyl-5-phenylpentanal, reference compound]", "4 × 10^3 Spores/ml"),
    ("CC(C)c1ccc(CO)cc1 [Cuminic alcohol, reference compound]", ">1.2 × 10^5 Spores/ml"),
    ("C=CCCCCCCCCO [9-decen-1-ol, reference compound]", "1.1 × 10^4 Spores/ml"),
    ("O=Cc1ccc(O)cc1 [4-hydroxybenzaldehyde]", ">1.2 × 10^5 Spores/ml"),
]

Problem: For the compound COc1ccc(C=O)cc1 , report Spores/ml.
Solution: 4.68 × 10^4 Spores/ml
